# target.of.assay: Sodium-dependent serotonin transporter
# assay: Inhibition of [3H]citalopram binding to serotonin transporter (SERT) of cynomolgus monkey caudate-putamen
Sorting guide: entries reporting IC50 beneath 2000 nM go in the rule met pile, the rest go in the rule not met pile.

Example entries begin here.
compound="COC(=O)C1=C(c2ccc(Cl)c(Cl)c2)CC2CCC1N2C (configuration not stated)" target_of_assay="Sodium-dependent serotonin transporter" cat="rule met"
compound="COC(=O)C1C2CCC(C2)CC1c1ccc(Cl)c(Cl)c1 (racemic)" target_of_assay="Sodium-dependent serotonin transporter" cat="rule met"
compound="COC(=O)C1C2CCC(CC1c1ccc(Cl)c(Cl)c1)N2 (configuration not stated)" target_of_assay="Sodium-dependent serotonin transporter" cat="rule met"

-- ask Does the reported IC50 of the following compound sit strictly below 2000 nM? COC(=O)C1C2CCC(C2)CC1c1ccc(Cl)c(Cl)c1 (stereo in doubt; 6a (R/S))
-- reply rule met

-- ask Does the reported IC50 of the following compound sit strictly below 2000 nM? COC(=O)C1=C(c2ccc(Cl)c(Cl)c2)CC2CCC1O2 (stereo in doubt; 5b (R))
-- reply rule not met

-- ask Does the reported IC50 of the following compound sit strictly below 2000 nM? COC(=O)C1=C(c2ccc(Cl)c(Cl)c2)CC2CCC1C2 (racemic)
-- reply rule not met
